Recorded pKi, one value per entry.
- Measured target: Mu-type opioid receptor (Mus musculus)
- Sequence (P42866 whole entry): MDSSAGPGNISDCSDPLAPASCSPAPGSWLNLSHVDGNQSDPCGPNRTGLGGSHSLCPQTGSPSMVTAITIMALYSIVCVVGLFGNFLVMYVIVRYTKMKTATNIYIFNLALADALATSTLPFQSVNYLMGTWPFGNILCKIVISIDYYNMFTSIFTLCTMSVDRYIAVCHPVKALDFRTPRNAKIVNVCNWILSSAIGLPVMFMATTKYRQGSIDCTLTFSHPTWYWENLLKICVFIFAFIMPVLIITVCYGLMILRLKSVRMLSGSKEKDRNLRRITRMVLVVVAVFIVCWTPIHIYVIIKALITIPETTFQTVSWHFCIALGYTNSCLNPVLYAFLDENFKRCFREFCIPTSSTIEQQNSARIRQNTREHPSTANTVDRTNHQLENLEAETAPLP
- Test protocol: Displacement of [3H] DAMGO from mouse MOR expressed in CHO cell membrane incubated for 90 mins by scintillation method
- Assay type: cell membranes
pKi: −log10 of the molar value.

[
  {
    "Molecule": "CN(C)C[C@@H]1CN(C(=O)Cc2cc(F)c(F)cc2F)CC[C@@]1(O)c1cccc(O)c1",
    "pKi": 8.74
  },
  {
    "Molecule": "COc1cccc(C2(O)CCN(C(=O)C3(c4ccccc4)CCC3)CC2CN(C)C)c1 (configuration not stated)",
    "pKi": 6.65
  },
  {
    "Molecule": "COc1cccc(C2(O)CCN(C(=O)C3(c4ccccc4)CCCC3)CC2CN(C)C)c1 (configuration not stated)",
    "pKi": 6.81
  },
  {
    "Molecule": "CN(C)CC1CN(C(=O)Cc2cccc(Cl)c2)CCC1(O)c1cccc(O)c1 (configuration not stated)",
    "pKi": 9.70
  },
  {
    "Molecule": "COc1cccc(C2(O)CCN(C(=O)Cc3cccc([N+](=O)[O-])c3)CC2CN(C)C)c1 (configuration not stated)",
    "pKi": 7.07
  },
  {
    "Molecule": "CN(C)CC1CN(C(=O)Cc2ccccc2OC(F)(F)F)CCC1(O)c1cccc(O)c1 (configuration not stated)",
    "pKi": 7.52
  },
  {
    "Molecule": "CN(C)CC1CN(C(=O)Cc2ccc(F)cc2)CCC1(O)c1cccc(O)c1 (configuration not stated)",
    "pKi": 7.06
  }
]

###

- Measured target: UniProt P41145
- Sequence (P41145 whole entry): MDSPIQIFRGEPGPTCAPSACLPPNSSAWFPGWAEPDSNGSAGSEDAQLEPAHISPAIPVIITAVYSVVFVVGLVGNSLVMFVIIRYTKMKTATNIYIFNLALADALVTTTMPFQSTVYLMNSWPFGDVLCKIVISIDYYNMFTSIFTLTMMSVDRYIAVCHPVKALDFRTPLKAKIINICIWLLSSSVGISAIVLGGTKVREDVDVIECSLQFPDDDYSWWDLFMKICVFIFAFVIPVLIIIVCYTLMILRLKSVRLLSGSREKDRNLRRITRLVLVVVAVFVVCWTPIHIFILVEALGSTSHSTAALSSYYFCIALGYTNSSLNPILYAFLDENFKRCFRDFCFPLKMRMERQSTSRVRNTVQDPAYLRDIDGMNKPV
- Test protocol: Inhibition of human KOR expressed in CHO cell membrane assessed as inhibition relative to control
- Type: cell-based
- Parameters: concentration or dose not given beside the values
- Details: filed as agonist, concentration not given here

[
  {
    "Compound": "COc1cccc(C2(O)CCN(C(=O)Cc3cccc(C#N)c3)CC2CN(C)C)c1 (stereo not given)",
    "inhibition [%]": 42.3
  },
  {
    "Compound": "COc1cccc(C2(O)CCN(C(=O)Cn3cnnn3)CC2CN(C)C)c1 (stereo not given)",
    "inhibition [%]": 22.9
  },
  {
    "Compound": "COc1cccc(C2(O)CCN(C(=O)C(C)(C)c3ccccc3)CC2CN(C)C)c1 (stereo not given)",
    "inhibition [%]": 44.4
  },
  {
    "Compound": "COc1cccc(C2(O)CCN(C(=O)c3cc(F)c(F)cc3F)CC2CN(C)C)c1 (stereo not given)",
    "inhibition [%]": 23
  },
  {
    "Compound": "COc1cccc(C2(O)CCN(C(=O)Cc3cc(F)c(F)cc3F)CC2CN(C)C)c1 (stereo not given)",
    "inhibition [%]": 26.7
  }
]

###

- Measured target: Delta-type opioid receptor (Homo sapiens, UniProt P41143)
- Sequence (P41143 whole entry): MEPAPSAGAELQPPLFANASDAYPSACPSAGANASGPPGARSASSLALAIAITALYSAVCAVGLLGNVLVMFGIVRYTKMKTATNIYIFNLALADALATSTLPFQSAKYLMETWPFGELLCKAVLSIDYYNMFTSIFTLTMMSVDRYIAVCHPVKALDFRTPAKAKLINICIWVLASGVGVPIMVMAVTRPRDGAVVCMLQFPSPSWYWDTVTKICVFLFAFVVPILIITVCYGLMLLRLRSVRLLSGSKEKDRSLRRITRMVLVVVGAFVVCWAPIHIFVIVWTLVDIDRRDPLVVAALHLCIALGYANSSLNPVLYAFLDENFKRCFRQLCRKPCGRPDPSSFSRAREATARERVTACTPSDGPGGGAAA
- Test protocol: Agonist activity at DOR (unknown origin) expressed in CHO cell membranes assessed as stimulation of [35S]GTPgammaS binding measured after 60 mins by liquid scintillation counting analysis
Recorded EC50, one value per entry.

[
  {
    "Molecule": "CN(C)CC1CN(C(=O)Cc2ccc(F)cc2)CCC1(O)c1cccc(O)c1 (centres undefined)",
    "EC50 / nM": 778
  },
  {
    "Molecule": "CN(C)CC1CN(C(=O)Cc2cc(F)c(F)cc2F)CCC1(O)c1cccc(O)c1 (centres undefined)",
    "EC50 / nM": 444
  },
  {
    "Molecule": "CN(C)CC1CN(C(=O)Cc2ccccc2Cl)CCC1(O)c1cccc(O)c1 (centres undefined)",
    "EC50 / nM": 549
  },
  {
    "Molecule": "CN(C)CC1CN(CCc2cccc(C(F)(F)F)c2)CCC1(O)c1cccc(O)c1 (centres undefined)",
    "EC50 / nM": 14.9
  },
  {
    "Molecule": "CN(C)CC1CN(C(=O)Cc2ccc(Cl)cc2)CCC1(O)c1cccc(O)c1 (centres undefined)",
    "EC50 / nM": 314
  },
  {
    "Molecule": "CN(C)CC1CN(C(=O)Cc2cccc(Cl)c2)CCC1(O)c1cccc(O)c1 (centres undefined)",
    "EC50 / nM": 3110
  },
  {
    "Molecule": "CN(C)C[C@@H]1CN(C(=O)Cc2cc(F)c(F)cc2F)CC[C@@]1(O)c1cccc(O)c1",
    "EC50 / nM": 134
  },
  {
    "Molecule": "Cc1ccc(CC(=O)N2CCC(O)(c3cccc(O)c3)C(CN(C)C)C2)cc1 (centres undefined)",
    "EC50 / nM": 4.8
  },
  {
    "Molecule": "CN(C)CC1CN(C(=O)CCc2cccc(C(F)(F)F)c2)CCC1(O)c1cccc(O)c1 (centres undefined)",
    "EC50 / nM": 14.5
  }
]

###

- Organism: Homo sapiens
- Test protocol: Selectivity ratio of Ki for KOR (unknown origin) to Ki for MOR (unknown origin)
Recorded Selectivity ratio, one value per entry.

[
  {
    "Compound": "CN(C)CC1CN(C(=O)Cc2ccc(F)cc2)CCC1(O)c1cccc(O)c1 (centres undefined)",
    "Selectivity ratio": 0.5
  },
  {
    "Compound": "CN(C)CC1CN(C(=O)Cc2ccccc2OC(F)(F)F)CCC1(O)c1cccc(O)c1 (centres undefined)",
    "Selectivity ratio": 22.1
  },
  {
    "Compound": "CN(C)CC1CN(C(=O)Cc2cccc(F)c2)CCC1(O)c1cccc(O)c1 (centres undefined)",
    "Selectivity ratio": 77
  },
  {
    "Compound": "CN(C)CC1CN(C(=O)CCc2ccccc2)CCC1(O)c1cccc(O)c1 (centres undefined)",
    "Selectivity ratio": 927
  }
]

###

- Measured target: Delta-type opioid receptor (Homo sapiens, UniProt P41143)
- Test protocol: Inhibition of human DOR expressed in CHO cell membrane assessed as inhibition relative to control
- Type: cell-based
- Design: concentration or dose not given beside the values
- Details: concentration not given here
Recorded inhibition, one value per entry.
Experimental endpoint: inhibition (%)

[
  {
    "Compound": "COc1cccc([C@@]2(O)CCN(C(=O)Cc3cc(F)c(F)cc3F)C[C@@H]2CN(C)C)c1",
    "Experimental endpoint": "inhibition",
    "Readout value": 0
  },
  {
    "Compound": "COc1cccc(C2(O)CCN(C(=O)Cc3ccccc3)CC2CN(C)C)c1 (stereo not given)",
    "Experimental endpoint": "inhibition",
    "Readout value": 11.7
  },
  {
    "Compound": "COc1cccc([C@@]2(O)CCCC[C@@H]2CN(C)C)c1 [(R,R)-TRAMADOL]",
    "Experimental endpoint": "inhibition",
    "Readout value": 0
  },
  {
    "Compound": "COc1cccc(C2(O)CCN(C(=O)Cc3ccccc3Cl)CC2CN(C)C)c1 (stereo not given)",
    "Experimental endpoint": "inhibition",
    "Readout value": 0
  },
  {
    "Compound": "CN(C)CC1CN(C(=O)CCc2ccc(C(F)(F)F)cc2)CCC1(O)c1cccc(O)c1 (stereo not given)",
    "Experimental endpoint": "inhibition",
    "Readout value": 0
  }
]

###

// Ki collected for Mu-type opioid receptor (Mus musculus, UniProt P42866)
Experimental endpoint: Ki (nM)

[
  {
    "Molecule": "CN(C)CC1CN(C(=O)Cc2ccc(Cl)cc2)CCC1(O)c1cccc(O)c1 (stereo not given)",
    "Readout value": 1.5
  },
  {
    "Molecule": "CN(C)CC1CN(C(=O)Cc2ccccc2F)CCC1(O)c1cccc(O)c1 (stereo not given)",
    "Readout value": 4.1
  },
  {
    "Molecule": "CN(C)CC1CN(C(=O)Cc2cccc(F)c2)CCC1(O)c1cccc(O)c1 (stereo not given)",
    "Readout value": 2.2
  },
  {
    "Molecule": "COc1cccc(C2(O)CCN(C(=O)Cc3cccs3)CC2CN(C)C)c1 (stereo not given)",
    "Readout value": 34.8
  },
  {
    "Molecule": "CN(C)CC1CN(C(=O)Cc2ccccc2)CCC1(O)c1cccc(O)c1 (stereo not given)",
    "Readout value": 6
  }
]

###

- System: Mus musculus
- Test protocol: Antinociceptive activity in CD-1 mouse at 10 mg/kg, ip
- Type: functional
I'd appreciate it if you marked entries 1 (yes) when MPE is lower than 70% and 0 (no) when it is not.

[
  {
    "Compound": "COc1cccc(C2(O)CCN(C(=O)Cc3cccc4ccccc34)CC2CN(C)C)c1 (stereo not given)",
    "Group label": "0 (no)"
  },
  {
    "Compound": "COc1cccc(C2(O)CCN(C(=O)C3(c4ccccc4)CCC3)CC2CN(C)C)c1 (stereo not given)",
    "Group label": "1 (yes)"
  },
  {
    "Compound": "COc1cccc(C2(O)CCN(C(=O)Cc3cccc(Br)c3)CC2CN(C)C)c1 (stereo not given)",
    "Group label": "0 (no)"
  },
  {
    "Compound": "COc1cccc(C2(O)CCN(C(=O)CCc3cccc(C(F)(F)F)c3)CC2CN(C)C)c1 (stereo not given)",
    "Group label": "1 (yes)"
  },
  {
    "Compound": "COc1cccc(C2(O)CCN(C(=O)Cc3ccc(Cl)cc3)CC2CN(C)C)c1 (stereo not given)",
    "Group label": "0 (no)"
  },
  {
    "Compound": "COc1cccc(C2(O)CCN(C(=O)Cc3cccc(OC(F)(F)F)c3)CC2CN(C)C)c1 (stereo not given)",
    "Group label": "1 (yes)"
  },
  {
    "Compound": "COc1cccc(C2(O)CCN(C(=O)Cc3cccc(C#N)c3)CC2CN(C)C)c1 (stereo not given)",
    "Group label": "1 (yes)"
  },
  {
    "Compound": "COc1cccc(C2(O)CCN(C(=O)Cc3cccc(F)c3)CC2CN(C)C)c1 (stereo not given)",
    "Group label": "0 (no)"
  },
  {
    "Compound": "COc1cccc(C2(O)CCN(C(=O)Cc3cccc([N+](=O)[O-])c3)CC2CN(C)C)c1 (stereo not given)",
    "Group label": "0 (no)"
  },
  {
    "Compound": "COc1cccc(C2(O)CCN(C(=O)C3(c4ccccc4)CCCC3)CC2CN(C)C)c1 (stereo not given)",
    "Group label": "1 (yes)"
  },
  {
    "Compound": "COc1cccc([C@]2(O)CCN(C(=O)Cc3cc(F)c(F)cc3F)C[C@H]2CN(C)C)c1",
    "Group label": "0 (no)"
  },
  {
    "Compound": "COc1cccc(C2(O)CCN(C(=O)Cc3cccc(Cl)c3)CC2CN(C)C)c1 (stereo not given)",
    "Group label": "0 (no)"
  },
  {
    "Compound": "COc1cccc(C2(O)CCN(C(=O)Cc3ccsc3)CC2CN(C)C)c1 (stereo not given)",
    "Group label": "1 (yes)"
  },
  {
    "Compound": "COc1cccc(C2(O)CCN(C(=O)Cc3c[nH]c4ccccc34)CC2CN(C)C)c1 (stereo not given)",
    "Group label": "1 (yes)"
  },
  {
    "Compound": "COc1cccc(C2(O)CCN(C(=O)C(C)(C)c3ccccc3)CC2CN(C)C)c1 (stereo not given)",
    "Group label": "1 (yes)"
  },
  {
    "Compound": "COc1cccc(C2(O)CCN(C(=O)Cn3ccc4ccccc43)CC2CN(C)C)c1 (stereo not given)",
    "Group label": "1 (yes)"
  },
  {
    "Compound": "COc1cccc(C2(O)CCN(C(=O)c3cc(F)c(F)cc3F)CC2CN(C)C)c1 (stereo not given)",
    "Group label": "1 (yes)"
  },
  {
    "Compound": "COc1cccc(C2(O)CCN(C(=O)Cc3cccs3)CC2CN(C)C)c1 (stereo not given)",
    "Group label": "0 (no)"
  },
  {
    "Compound": "COc1cccc(C2(O)CCN(C(=O)C3(c4ccccc4)CC3)CC2CN(C)C)c1 (stereo not given)",
    "Group label": "1 (yes)"
  }
]
